target: T1, cynomolgus CD8 (captured on the Octet biosensor) (cynomolgus); experiment: Octet (BLI); cynomolgus CD8 captured, dipped into multiple concentrations of the one-arm mAb
T1 construct: Construct not described; also called cyno CD8; cyno CD8a
Respond with MET for kon values of 100000 M⁻¹ s⁻¹ and above, NOT MET for values below.

XENP26239 (antibody, V domains shown, also called OKT8_H2.162_L1.103 one-arm mAb) VH: QVQLVQSGAEVKKPGASVKVSCKASGFNIKDTYIHWVRQAPGKGLEWMGRIDPDNDETLYASKFQGRVTITADTSINTAYMELSRLRSDDTAVYYCGRGYGYYYFDHWGQGTTVTVSS VL: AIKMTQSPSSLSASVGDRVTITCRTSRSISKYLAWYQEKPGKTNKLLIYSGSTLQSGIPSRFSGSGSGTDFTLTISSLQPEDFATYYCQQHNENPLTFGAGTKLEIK | MET

Confirm if kon reported for the binder XENP26241 (antibody, V domains shown, also called OKT8_H2.164_L1.103 one-arm mAb) VH: QVQLVQSGAEVKKPGASVKVSCKASGFNIKDTYIHWVRQAPGKGLEWMGRIDPDNDETLYASKFQGRVTMTADTSINTAYMELSRLRSDDTAVYYCGRGYGKYVFDHWGQGTTVTVSS VL: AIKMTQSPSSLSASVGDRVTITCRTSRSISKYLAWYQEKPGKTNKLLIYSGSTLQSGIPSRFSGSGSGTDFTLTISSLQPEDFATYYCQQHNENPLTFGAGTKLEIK is 100000 M⁻¹ s⁻¹ or above.
NOT MET

Confirm if kon reported for the binder XENP26019 (antibody, V domains shown, also called OKT8_H2.152_L1.113 one-arm mAb) VH: QVQLVQSGAEVKKPGASVKVSCKASGFNIKDTYIHWVRQAPGKGLEWMGRIDPDNGETLYASKFQGRVTITADTSINTAYMELSRLRSDDTAVYYCGRGYGYYVFDHWGQGTTVTVSS VL: AIKMTQSPSSLSASVGDRVTITCRTSRSISIYLAWYQEKPGKTNKLLIYKGSTLQSGIPSRFSGSGSGTDFTLTISSLQPEDFATYYCQQANENPLTFGAGTKLEIK is 100000 M⁻¹ s⁻¹ or above.
MET

Confirm if kon reported for the binder XENP26232 (antibody, V domains shown, also called OKT8_H2.155_L1.103 one-arm mAb) VH: QVQLVQSGAEVKKPGASVKVSCKASGFNIKDTYIHWVRQAPGKGLEWMGRIDPDNGETLYASKFQGRVTITADTSINTAYMELSRLRSDDTAVYYCGRGYGYYYFDHWGQGTTVTVSS VL: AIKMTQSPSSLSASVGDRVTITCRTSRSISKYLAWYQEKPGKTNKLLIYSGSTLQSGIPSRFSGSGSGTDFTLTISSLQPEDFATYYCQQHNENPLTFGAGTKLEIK is 100000 M⁻¹ s⁻¹ or above.
MET

Confirm if kon reported for the binder XENP26238 (antibody, V domains shown, also called OKT8_H2.161_L1.103 one-arm mAb) VH: QVQLVQSGAEVKKPGASVKVSCKASGFNIKDTYIHWVRQAPGKGLEWMGRIDPDNDETLYASKFQGRVTITADTSINTAYMELSRLRSDDTAVYYCGRGYGKYVFDHWGQGTTVTVSS VL: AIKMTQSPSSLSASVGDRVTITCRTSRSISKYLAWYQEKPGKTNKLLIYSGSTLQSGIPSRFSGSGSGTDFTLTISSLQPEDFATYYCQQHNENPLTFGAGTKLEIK is 100000 M⁻¹ s⁻¹ or above.
NOT MET

Origin of the recorded values: patent US12448423
